The origin of these recorded values is patent US20240327509A1.

# experimental system: T1, Recombinant human CXCL16 (rhCXCL16) protein (human, UniProt Q9H2A7 30-118, limits assumed)
# T1 construct: Bought recombinant protein (976-CX, R&D systems); also called CXCL16 antigen; 976-CX (R&D systems)
# T1 sequence: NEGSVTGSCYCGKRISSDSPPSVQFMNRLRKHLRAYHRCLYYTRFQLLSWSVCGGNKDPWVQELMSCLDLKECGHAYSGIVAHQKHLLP
# method description: BLI (ForteBio), antibody captured on biosensor, rhCXCL16 in solution, 25 C
I'd appreciate it if you could supply koff values for the items below.
Returns: string containing the numeric result and its unit.

Provide each entry's koff from the list below.
1. HC5LC3 (antibody, human IgG1, kappa, V domains shown, Humanized; human IgG1 / kappa constant domains; also called HCSLC3; humanized CXCL16 antibody HC5LC3) VH: EVQLVESGGGLVQPGGSLKLSCAASGFTFSNAVMNWVRQASGKGLEWVARIRTKPNNYATFYADSVKGRFTFSRDDSKNTAYLQMNSLKTEDTAMYYCTAWTTEGIYWGQGTLVTVSS VL: DIQMTQSPSSLSASVGDRVTITCKSSQSLLYSGNQKNYLAWYQQKPGQSPKLLIYWASTRQSGVPDRFSGSGSGTDFTLTISSLQAEDFATYYCQQYYDTPWTFGGGTKVEIKR
2. HC5LC2 (antibody, human IgG1, kappa, V domains shown, Humanized; human IgG1 / kappa constant domains; also called HCSLC2; humanized CXCL16 antibody HC5LC2) VH: EVQLVESGGGLVQPGGSLKLSCAASGFTFSNAVMNWVRQASGKGLEWVARIRTKPNNYATFYADSVKGRFTFSRDDSKNTAYLQMNSLKTEDTAMYYCTAWTTEGIYWGQGTLVTVSS VL: DIVMTQSPSSLAVSLGETATINCKSSQSLLYSGNQKNYLAWYQQKPGQPPKLLIYWASTRQSGVPDRFTGSGAGTDFTLTISSVQAEDLAIYYCQQYYDTPWTFGGGTKVEIKR
3. HC5LC1 (antibody, human IgG1, kappa, V domains shown, Humanized; human IgG1 / kappa constant domains; also called HCSLC1; humanized CXCL16 antibody HC5LC1) VH: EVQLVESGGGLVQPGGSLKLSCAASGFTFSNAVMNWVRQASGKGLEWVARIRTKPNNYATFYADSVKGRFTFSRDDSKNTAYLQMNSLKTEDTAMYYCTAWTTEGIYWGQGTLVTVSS VL: DIVMTQSPDSLAVSAGETVTINCKSSQSLLYSGNQKNYLAWYQQKPGQSPKLLIYWASTRQSGVPDRFSGSGSGTDFTLTISSVQAEDVAVYYCQQYYDTPWTFGGGTKVEIKR

Result block:
1. 0.000635 s⁻¹
2. 6.07e-05 s⁻¹
3. 5.97e-05 s⁻¹
